# experimental_target: hMPO (Homo sapiens)
# Sequence (P05164 49-745): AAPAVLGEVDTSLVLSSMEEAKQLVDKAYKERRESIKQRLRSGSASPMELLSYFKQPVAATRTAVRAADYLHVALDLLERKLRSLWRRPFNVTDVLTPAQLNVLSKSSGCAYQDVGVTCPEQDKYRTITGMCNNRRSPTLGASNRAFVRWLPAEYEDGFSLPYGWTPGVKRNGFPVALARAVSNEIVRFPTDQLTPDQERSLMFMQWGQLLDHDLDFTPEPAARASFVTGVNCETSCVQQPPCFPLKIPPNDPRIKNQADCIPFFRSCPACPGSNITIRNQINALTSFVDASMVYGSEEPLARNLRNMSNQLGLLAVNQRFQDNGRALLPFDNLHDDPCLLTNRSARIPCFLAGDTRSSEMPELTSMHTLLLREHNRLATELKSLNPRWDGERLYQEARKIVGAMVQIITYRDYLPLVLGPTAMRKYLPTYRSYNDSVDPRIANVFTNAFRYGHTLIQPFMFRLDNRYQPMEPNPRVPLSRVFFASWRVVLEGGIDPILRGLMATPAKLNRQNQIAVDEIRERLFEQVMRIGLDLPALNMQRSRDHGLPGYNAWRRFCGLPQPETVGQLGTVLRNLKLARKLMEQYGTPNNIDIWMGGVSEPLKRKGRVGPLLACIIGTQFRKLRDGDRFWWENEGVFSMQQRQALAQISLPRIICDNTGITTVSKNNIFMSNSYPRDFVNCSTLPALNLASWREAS
readout_label: IC50 (µM)

Use these answered entries as a reference point.
O=C(O)c1n[nH]c2ccccc12    160
O=C(NO)c1ccccc1O    5.9
Oc1n[nH]c2c1CCC2    0.396

A: O=C(O)c1n[nH]c(-c2ccccc2)c1O
B: O=[N+]([O-])c1c(O)ncnc1O
When A and B are compared, which has the higher number for IC50? Provide the label of your selected option as the answer.
B

---

# experimental_target: native state (Fe3+) of hMPO (Homo sapiens)
# Construct: purchased Athens Research and Technology
# Sequence (P05164 49-745): as above
# protocol_text: Low temperature ESR binding assay (binding-induced g shift, Rrelative)
# settings: absolute difference between g X and g Y of the bound complex
# Description: After 5-min. incubation at room temperature, the entire reaction mixture (0.235 mL) was transferred to the ESR quartz tubes. To avoid the quartz tubes breaking during the rapid freezing cycles, the ESR tubes were initially frozen in a 1:1 Isopentane-Cyclohexane mixture cooled with dry ice powder and then transferred to a liquid nitrogen Dewar to be queued up for ESR measurements. […] ESR spectra were recorded on a Varian E-12, X-band spectrometer equipped with an Air Products liquid helium cryostat. […]
readout_label: Δg

Sc1nnc(-c2cccnc2)o1    2.115
Fc1ccccc1-c1n[nH]c(=S)o1    2.1759
O=[N+]([O-])c1c(O)ncnc1O    2.31
O=C(O)c1nn(-c2cccc3ccccc23)cc1O    2.308
O=C(O)c1n[nH]c(-c2ccccc2)c1O    2.09
